Every entry's value here was drawn from patent US20160200791A1.

Target: T1, human GLP-1 receptor (human, UniProt P43220 24-463)
T1 construct: whole, on cells
Experiment: competitive SPA binding, displacement of 125I-GLP-1(7-36)NH2 from BHK membranes with human GLP-1R, high HSA (2.0%)
Numbered stars: 1 amine (or outer) side, 2 acyl side, 3 side chain; on linkers, the order of the positions; unused ones are H or OH. Square brackets hold non-standard residues; d marks the D form. Side chains are listed from the residue outwards. Ends that are not written are not given here. * marks the point of attachment. Hexadecanoyl(16-SO3H) = O=C(CCCCCCCCCCCCCCCS(=O)(=O)O)*; C18 diacid = O=C(O)CCCCCCCCCCCCCCCCC(=O)*; γGlu = O=C(O)[C@H](CCC(=O)[*:2])N[*:1]; εLys = N[C@@H](CCCCN[*:1])C(=O)[*:2]; Cya = N[C@@H](CS(=O)(=O)O)C(=O)O; Trx = NC[C@H]1CC[C@H](C(=O)O)CC1; AEEA = NCCOCCOCC(=O)O; Aib = CC(C)(N)C(=O)O; Ahx = NCCCCCC(=O)O; GABA = NCCCC(=O)O
observable: IC50 (nM)

* H[Aib]EGTFTSDVSK([AEEA-AEEA-AEEA-AEEA-AEEA-εLys-εLys-εLys-C18 diacid])YLEK([AEEA-AEEA-AEEA-AEEA-AEEA-εLys-εLys-εLys-C18 diacid])QAAREFIK([AEEA-AEEA-AEEA-AEEA-AEEA-εLys-εLys-εLys-C18 diacid])WLVRGRG (Full chemical name printed at h-0084) | 143
* H[Aib]EGTFTSDVSK([AEEA-AEEA-AEEA-AEEA-εLys-εLys-Ahx-Hexadecanoyl(16-SO3H)])YLEK([AEEA-AEEA-AEEA-AEEA-εLys-εLys-Ahx-Hexadecanoyl(16-SO3H)])QAAREFIK([AEEA-AEEA-AEEA-AEEA-εLys-εLys-Ahx-Hexadecanoyl(16-SO3H)])WLVRGRG (Full chemical name printed at h-0088; the printed name is uneven in the number of OEG units for the side chains at 18 and 22 (four opened, three closed)) | 49
* H[Aib]EGTFTSDVSK([AEEA-AEEA-AEEA-AEEA-AEEA-εLys-εLys-Ahx-Hexadecanoyl(16-SO3H)])YLEK([AEEA-AEEA-AEEA-AEEA-AEEA-εLys-εLys-Ahx-Hexadecanoyl(16-SO3H)])QAAREFIK([AEEA-AEEA-AEEA-AEEA-AEEA-εLys-εLys-Ahx-Hexadecanoyl(16-SO3H)])WLVRGRG (Full chemical name printed at h-0090) | 100
* H[Aib]EGTFTSDVSK([AEEA-AEEA-Cya-Hexadecanoyl(16-SO3H)])YLEK([AEEA-AEEA-Cya-Hexadecanoyl(16-SO3H)])QAAREFIK([AEEA-AEEA-Cya-Hexadecanoyl(16-SO3H)])WLVRGRG (Full chemical name printed at h-0054) | 290
* H[Aib]EGTFTSDVSK([AEEA-AEEA-AEEA-AEEA-AEEA-εLys-εLys-GABA-Hexadecanoyl(16-SO3H)])YLEK([AEEA-AEEA-AEEA-AEEA-AEEA-εLys-εLys-GABA-Hexadecanoyl(16-SO3H)])QAAREFIK([AEEA-AEEA-AEEA-AEEA-AEEA-εLys-εLys-GABA-Hexadecanoyl(16-SO3H)])WLVRGRG (Full chemical name printed at h-0092) | 96
* H[Aib]EGTFTSDVSK([AEEA-AEEA-γGlu-Trx-Hexadecanoyl(16-SO3H)])YLEK([AEEA-AEEA-γGlu-Trx-Hexadecanoyl(16-SO3H)])QAAREFIK([AEEA-AEEA-γGlu-Trx-Hexadecanoyl(16-SO3H)])WLVRGRG (Full chemical name printed at h-0052) | 289
* H[Aib]EGTFTSDVSSYLEEQAARK([AEEA-AEEA-γGlu-C18 diacid])FIK([AEEA-AEEA-γGlu-C18 diacid])WLVRGRK([AEEA-AEEA-γGlu-C18 diacid]) (Full chemical name printed at h-0070) | 188
* H[Aib]EGTFTSDVSK([AEEA-AEEA-εLys-Hexadecanoyl(16-SO3H)])YLEK([AEEA-AEEA-εLys-Hexadecanoyl(16-SO3H)])QAAREFIK([AEEA-AEEA-εLys-Hexadecanoyl(16-SO3H)])WLVRGRG (Full chemical name printed at h-0076) | 84
* H[Aib]EGTFTSDVSSYLEEQAAK([εLys-AEEA-AEEA-Cya-Hexadecanoyl(16-SO3H)])EFIK([εLys-AEEA-AEEA-Cya-Hexadecanoyl(16-SO3H)])WLVRGRK([εLys-AEEA-AEEA-Cya-Hexadecanoyl(16-SO3H)]) (Full chemical name printed at h-0074) | 214
